Tested on: human lung cancer (A549) cell line
MEASUREMENT DESCRIPTION: Cytotoxic activity, MTT assay, lung (A549)
TEST CONDITIONS: Conc.: 5a 13.45, 5d 12.64, 5e 12.29, 5f 11.81, 7a 12.72, 7f 11.24, DOX 11.50
MEASURED METRIC: Viability %, A549, 1st concentration (%)
Hi! Could you send only the number? It should be in %, unit omitted.

Worked cases, answers included:
COc1ccc(Nc2n[nH]c(N=Cc3ccc(N4CCCCC4)cc3)c2C(=O)Nc2ccc(Cl)cc2)cc1    97.46
COc1ccc(Nc2n[nH]c(N=Cc3c(C)n(C)n(-c4ccccc4)c3=O)c2C(=O)Nc2ccc(Cl)cc2)cc1    96.21
Cc1c(C=Nc2[nH]nc(Nc3ccccc3)c2C(=O)Nc2ccccc2)c(=O)n(-c2ccccc2)n1C    90.96

Prompt line: Find the measured Viability %, A549, 1st concentration of COc1ccc(Nc2n[nH]c(/N=C/c3ccc(N4CCCCC4)cc3)c2C(=O)Nc2ccc(C)cc2)cc1 and report it.
Response line: 90.96

Prompt line: Find the measured Viability %, A549, 1st concentration of O=C(Nc1ccccc1)c1c(Nc2ccccc2)n[nH]c1N=Cc1ccc(N2CCCCC2)cc1 and report it.
Response line: 97.46

Prompt line: Find the measured Viability %, A549, 1st concentration of COc1ccc(Nc2n[nH]c(/N=C/c3ccc(N4CCCCC4)cc3)c2C(=O)Nc2ccccc2)cc1 and report it.
Response line: 90.46

* * *

Each entry below carries its recorded Inhibition (%) α-Glucosidase.
Tested on: α-glucosidase
MEASUREMENT DESCRIPTION: α-Glucosidase inhibition (anti-diabetic)
Type: biochemical
TEST CONDITIONS: equal concentrations (1000 µg/mL); mean ± SE
Hi! Could you send only the number? It should be in %, unit omitted.

COc1ccc(Nc2n[nH]c(N=Cc3ccc(N4CCCCC4)cc3)c2C(=O)Nc2ccc(Cl)cc2)cc1    27.33
Cc1ccc(NC(=O)c2c(Nc3ccccc3)n[nH]c2/N=C/c2ccc(N3CCCCC3)cc2)cc1    7.85
Cc1c(C=Nc2[nH]nc(Nc3ccccc3)c2C(=O)Nc2ccccc2)c(=O)n(-c2ccccc2)n1C    26.91
COc1ccc(Nc2n[nH]c(N=Cc3c(C)nn(-c4ccccc4)c3Cl)c2C(=O)Nc2ccc(C)cc2)cc1    15.69
COc1ccc(Nc2n[nH]c(N=Cc3c(C)n(C)n(-c4ccccc4)c3=O)c2C(=O)Nc2ccc(Cl)cc2)cc1    27.79
COc1ccc(Nc2n[nH]c(N=Cc3c(C)n(C)n(-c4ccccc4)c3=O)c2C(=O)Nc2ccc(C)cc2)cc1    8.07
O=C(Nc1ccccc1)c1c(Nc2ccccc2)n[nH]c1N=Cc1ccc(N2CCCCC2)cc1    26.87

Prompt line: Find the measured Inhibition (%) α-Glucosidase of COc1ccc(Nc2n[nH]c(N=Cc3c(C)nn(-c4ccccc4)c3Cl)c2C(=O)Nc2ccc(Cl)cc2)cc1 and report it.
Response line: 15.67

* * *

ASSAYED SYSTEM: acetylcholinesterase (AChE) (Homo sapiens, UniProt P22303)
Sequence (P22303 32-614, species assumed): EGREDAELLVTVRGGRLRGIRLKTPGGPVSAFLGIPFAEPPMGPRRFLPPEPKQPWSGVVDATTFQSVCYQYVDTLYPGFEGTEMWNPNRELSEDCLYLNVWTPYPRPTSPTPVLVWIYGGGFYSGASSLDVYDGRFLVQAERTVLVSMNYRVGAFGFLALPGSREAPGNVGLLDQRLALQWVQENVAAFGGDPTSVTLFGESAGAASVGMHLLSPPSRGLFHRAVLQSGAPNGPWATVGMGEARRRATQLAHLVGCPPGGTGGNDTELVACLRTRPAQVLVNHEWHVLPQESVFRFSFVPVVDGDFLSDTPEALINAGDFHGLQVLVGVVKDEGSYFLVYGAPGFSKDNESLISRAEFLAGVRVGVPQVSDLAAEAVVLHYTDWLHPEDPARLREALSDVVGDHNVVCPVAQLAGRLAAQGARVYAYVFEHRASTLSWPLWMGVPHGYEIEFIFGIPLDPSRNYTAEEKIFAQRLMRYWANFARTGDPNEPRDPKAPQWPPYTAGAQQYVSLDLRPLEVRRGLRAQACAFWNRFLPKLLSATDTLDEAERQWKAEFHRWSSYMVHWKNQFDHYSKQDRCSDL
MEASUREMENT DESCRIPTION: biochemical
TEST CONDITIONS: same concentration (1000 µg/mL); mean ± SE
Each entry below carries its recorded inhibition at 1000 µg/mL.
Please provide the amount together with its unit, number first.

O=C(Nc1ccccc1)c1c(Nc2ccccc2)n[nH]c1N=Cc1ccc(N2CCCCC2)cc1    42%
Cc1nn(-c2ccccc2)c(Cl)c1C=Nc1[nH]nc(Nc2ccccc2)c1C(=O)Nc1ccccc1    24%
COc1ccc(Nc2n[nH]c(N=Cc3ccc(N4CCCCC4)cc3)c2C(=O)Nc2ccc(Cl)cc2)cc1    42.8%
COc1ccc(Nc2n[nH]c(N=Cc3c(C)n(C)n(-c4ccccc4)c3=O)c2C(=O)Nc2ccc(Cl)cc2)cc1    62.1%
Cc1nn(-c2ccccc2)c(Cl)c1C=Nc1[nH]nc(Nc2ccccc2)c1C(=O)Nc1ccc(Cl)cc1    28.2%

Prompt line: Find the measured inhibition at 1000 µg/mL of COc1ccc(Nc2n[nH]c(N=Cc3c(C)n(C)n(-c4ccccc4)c3=O)c2C(=O)Nc2ccc(C)cc2)cc1 and report it.
Response line: 12.6%

Prompt line: Find the measured inhibition at 1000 µg/mL of COc1ccc(Nc2n[nH]c(N=Cc3c(C)nn(-c4ccccc4)c3Cl)c2C(=O)Nc2ccc(Cl)cc2)cc1 and report it.
Response line: 24.5%

Prompt line: Find the measured inhibition at 1000 µg/mL of COc1ccc(Nc2n[nH]c(N=Cc3c(C)n(C)n(-c4ccccc4)c3=O)c2C(=O)Nc2ccccc2)cc1 and report it.
Response line: 24.4%

Hey, just so you know, these numbers are from paper PMC11125359.
